Sourced from patent US20050009924A1

# run-description: MTT relative viability, PhTERT-SEAP (H1299) cells
# stated-conditions: human
// viability at 48 h, 21 µM lookup, one value per entry
attribute-measured: viability at 48 h, 21 µM (%)

compound=O=C(Nc1ccc(NC(=O)c2cccs2)c2c1C(=O)c1ccccc1C2=O)c1cccs1 data_value=107
compound=O=C1c2ccccc2C(=O)c2c(NC(=O)C3CCCCC3)ccc(NC(=O)C3CCCCC3)c21 data_value=96
compound=Cc1ccccc1C(=O)Oc1cccc2c1C(=O)c1cccc(OC(=O)c3ccccc3C)c1C2=O data_value=36
compound="O=C1c2cccc(SCCCCCCO)c2C(=O)c2cccc(SCCCCCCO)c21 [IIe, 1,5-Bis(hydroxyhexylthio)-anthraquinone]" data_value=94
compound=O=C(Cc1ccccc1)Oc1cccc2c1C(=O)c1cccc(OC(=O)Cc3ccccc3)c1C2=O data_value=53
compound=CCN(CC)CC(=O)Nc1ccc(NC(=O)CN(CC)CC)c2c1C(=O)c1ccccc1C2=O data_value=87
compound=Cc1cccc(C(=O)Oc2cccc3c2C(=O)c2cccc(OC(=O)c4cccc(C)c4)c2C3=O)c1 data_value=28
compound=Cc1ccc(C(=O)Oc2cccc3c2C(=O)c2cccc(OC(=O)c4ccc(C)cc4)c2C3=O)cc1 data_value=33

----------
// IC50 lookup, one value per entry
# Tested on: rat glioma C6 cells
# run-description: Cytotoxicity assay (XTT colorimetric), C6 cells
# Type: cell-based
# stated-conditions: Rattus norvegicus, C6; 48 h of drug exposure
attribute-measured: IC50

compound="CCNc1cccc2c1C(=O)c1cccc(NCC)c1C2=O [IVa, 1,5-Bis(ethylamino)anthraquinone]" data_value="> 20 µM"
compound="CC(Cl)C(=O)Nc1ccc(NC(=O)C(C)Cl)c2c1C(=O)c1ccccc1C2=O (stereo not shown) [VI9]" data_value="> 20 µM"
compound="CC(C)Nc1cccc2c1C(=O)c1cccc(NC(C)C)c1C2=O [IVc, 1,5-Bis(isopropylamino)anthraquinone]" data_value="> 20 µM"
compound=O=C(Oc1cccc2c1C(=O)c1cccc(OC(=O)c3cccc(Cl)c3)c1C2=O)c1cccc(Cl)c1 data_value="25.1 µM"
compound="Cc1cccc(C(=O)Oc2cccc3c2C(=O)c2cccc(OC(=O)c4cccc(C)c4)c2C3=O)c1 [IIIk, 1,5-Bis(3-toluoyloxy)-anthraquinone]" data_value="30.1 µM"
compound="O=C1c2cccc(NCCc3ccccc3)c2C(=O)c2cccc(NCCc3ccccc3)c21 [IVs, 1,5-Bis(phenylethylamino)-anthraquinone]" data_value="> 20 µM"
compound="O=C(Nc1ccc(NC(=O)c2cccs2)c2c1C(=O)c1ccccc1C2=O)c1cccs1 [VI22]" data_value="> 20 µM"

----------
# run-description: MTT relative viability, PhTERT-SEAP (H1299) cells
# stated-conditions: human
attribute-measured: viability at 48 h, 195 µM (%)

compound="O=C(Cc1ccc(F)cc1)Nc1ccc(NC(=O)Cc2ccc(F)cc2)c2c1C(=O)c1ccccc1C2=O [VI32]" attribute_measured="viability at 48 h, 195 µM" data_value=78

----------
# run-description: MTT relative viability, PCMV-SEAP (hTERT-BJ1) cells
# Format: cell-based
# stated-conditions: human, stable PCMV-SEAP reporter clone, 2.8 μM
attribute-measured: viability at 48 h, 2.8 µM

chem_smiles=CCC(=O)Oc1cccc2c1C(=O)c1cccc(OC(=O)CC)c1C2=O data_value=114%

----------
# run-description: MTT relative viability, PhTERT-SEAP (hTERT-BJ1) cells
# stated-conditions: human
attribute-measured: viability at 48 h, 1.9 µM

compound="O=C1c2c(O)ccc(O)c2C(=O)c2c(NCCNCCO)ccc(NCCNCCO)c21 [Mitoxantrone, reference compound]" data_value=75%

----------
// IC50 lookup, one value per entry
# Test system: hepatitis B virus transfected hepatoma cell lines, HepG 2.2.15 cells
# run-description: Cytotoxicity assay, 2.2.15 cells
# Assay type: cell-based, human
# stated-conditions: 48 h of drug exposure
attribute-measured: IC50

chem_smiles=O=C(Nc1ccc(NC(=O)c2cc(F)c(F)cc2F)c2c1C(=O)c1ccccc1C2=O)c1cc(F)c(F)cc1F attribute_measured=IC50 data_value="3.35 µM"
chem_smiles=Cc1cc(C(=O)Nc2ccc(NC(=O)c3cc(C)oc3C)c3c2C(=O)c2ccccc2C3=O)c(C)o1 attribute_measured=IC50 data_value="> 20 µM"
chem_smiles=O=C1c2cccc(NCCCCO)c2C(=O)c2cccc(NCCCCO)c21 attribute_measured=IC50 data_value="10.3 µM"
chem_smiles=O=C1c2cccc(NC3CCCC3)c2C(=O)c2c(NC3CCCC3)cccc21 attribute_measured=IC50 data_value="> 20 µM"
chem_smiles=O=C(Nc1ccc(NC(=O)c2ccc(F)cc2F)c2c1C(=O)c1ccccc1C2=O)c1ccc(F)cc1F attribute_measured=IC50 data_value="> 20 µM"
chem_smiles=O=C(Nc1ccc(NC(=O)c2ccco2)c2c1C(=O)c1ccccc1C2=O)c1ccco1 attribute_measured=IC50 data_value="> 20 µM"
chem_smiles=O=C1c2cccc(NCCCO)c2C(=O)c2c(NCCCO)cccc21 attribute_measured=IC50 data_value="> 20 µM"
chem_smiles=O=C(Nc1ccc(NC(=O)c2ccc(Cl)cc2)c2c1C(=O)c1ccccc1C2=O)c1ccc(Cl)cc1 attribute_measured=IC50 data_value="> 20 µM"

----------
# System: iron-induced lipid peroxidation in rat brain homogenates
# run-description: Iron-induced lipid peroxidation in rat brain homogenates
# stated-conditions: 0.01 mM
Where a name gives a salt, the structure may show the parent alone.
# label = TRUE if Inhibition (%) < 10% else FALSE

molecule="Cc1c(C)c2c(c(C)c1O)CC[C@@](C)(CCC[C@H](C)CCC[C@H](C)CCCC(C)C)O2 [(+)−α-Tocopherol, reference compound]" class_label=TRUE
molecule=O=C1c2cccc(SCc3ccccc3)c2C(=O)c2cccc(SCc3ccccc3)c21 class_label=FALSE
molecule=O=C(CCc1ccccc1)Oc1cccc2c1C(=O)c1cccc(OC(=O)CCc3ccccc3)c1C2=O class_label=FALSE
molecule="O=C1c2c(O)ccc(O)c2C(=O)c2c(NCCNCCO)ccc(NCCNCCO)c21 [Mitoxantrone-HCl, reference compound]" class_label=TRUE

----------
# run-description: MTT relative viability, PhTERT-SEAP (H1299) cells
# stated-conditions: human
// viability at 48 h, 190 µM lookup, one value per entry
attribute-measured: viability at 48 h, 190 µM (%)

chem_smiles=O=C(Oc1cccc2c1C(=O)c1cccc(OC(=O)c3cccc(Cl)c3)c1C2=O)c1cccc(Cl)c1 data_value=46
chem_smiles=O=C(Oc1cccc2c1C(=O)c1cccc(OC(=O)c3ccccc3Cl)c1C2=O)c1ccccc1Cl data_value=30
chem_smiles=O=C(Oc1cccc2c1C(=O)c1cccc(OC(=O)c3ccc(Cl)cc3)c1C2=O)c1ccc(Cl)cc1 data_value=31

----------
# Test system: rat glioma C6 cells
# run-description: Cytotoxicity assay (XTT colorimetric), C6 cells
# Assay type: cell-based
# stated-conditions: Rattus norvegicus, C6; 48 h of drug exposure
// log10 of IC50 lookup, one value per entry
attribute-measured: log10 of IC50 (log10 of the value in µM)

molecule=NCCCCCNc1cccc2c1C(=O)c1c(NCCCCCN)cccc1C2=O attribute_measured="log10 of IC50" data_value=-0.96
molecule=CCN(CC)CCC(=O)Nc1ccc(NC(=O)CCN(CC)CC)c2c1C(=O)c1ccccc1C2=O attribute_measured="log10 of IC50" data_value=-0.05
molecule="O=C1c2cccc(SCC(O)CO)c2C(=O)c2cccc(SCC(O)CO)c21 (centres unmarked)" attribute_measured="log10 of IC50" data_value=1.59
molecule=CCCSc1cccc2c1C(=O)c1cccc(SCCC)c1C2=O attribute_measured="log10 of IC50" data_value=1.48
molecule=Nc1ccc(Sc2cccc3c2C(=O)c2cccc(Sc4ccc(N)cc4)c2C3=O)cc1 attribute_measured="log10 of IC50" data_value=-1.30
molecule=O=C(Oc1cccc2c1C(=O)c1cccc(OC(=O)c3ccc(Cl)cc3)c1C2=O)c1ccc(Cl)cc1 attribute_measured="log10 of IC50" data_value=1.59
molecule=CCC(=O)Oc1cccc2c1C(=O)c1cccc(OC(=O)CC)c1C2=O attribute_measured="log10 of IC50" data_value=1.32
molecule=O=C(Oc1cccc2c1C(=O)c1cccc(OC(=O)c3ccccc3)c1C2=O)c1ccccc1 attribute_measured="log10 of IC50" data_value=1.59
molecule="COc1cccc2c1C(=O)c1c(O)c3c(c(O)c1C2=O)C[C@@](O)(C(=O)CO)C[C@@H]3O[C@H]1C[C@H](N)[C@H](O)[C@H](C)O1 [Adriamycin, reference compound]" attribute_measured="log10 of IC50" data_value=0.00
molecule=Cc1ccccc1C(=O)Oc1cccc2c1C(=O)c1cccc(OC(=O)c3ccccc3C)c1C2=O attribute_measured="log10 of IC50" data_value=1.40
molecule="O=C1c2cccc(SCCCCCCO)c2C(=O)c2cccc(SCCCCCCO)c21 [IIe, 1,5-Bis(hydroxyhexylthio)-anthraquinone]" attribute_measured="log10 of IC50" data_value=1.50

----------
# run-description: MTT relative viability, PhTERT-SEAP (hTERT-BJ1) cells
# stated-conditions: human, hTERT-BJ1 cells, stable PhTERT-SEAP reporter clone
attribute-measured: viability at 48 h, 1.8 µM

molecule="O=C1c2ccccc2C(=O)c2c(NC(=O)[C@@H]3C[C@H]3c3ccccc3)ccc(NC(=O)[C@@H]3C[C@H]3c3ccccc3)c21 (relative stereo) [VI27]" data_value=92%
